Data origin, for the record: the supplement of paper PMC10567573

B1: ACSBG2 (parent)
chain: FAQADALKGTLVSTLKEVKPTVFI

variants of: B1; assay: protein stability index of a GFP-peptide fusion (GPS, HEK-293T) (PSI 1-6); higher = more stable; details: c terminus: a fixed tail appended;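 further: lentivirally expressed fusions sorted by FACS into six bins by GFP to DsRed ratio, PSI derived from sequencing read proportions per bin multiplied by bin number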
Measured Attribute: protein stability index

For orientation, consider the following solved cases.
Mutation Key	Reported Measurement
I24S	2.27
G9D	1.59

Which value of protein stability index has been reported for `A4P` in the records?
3.08

Now consider `T10G` .
1.46

Now consider `V22G` .
2.25

Now consider `A4E` .
2.77

Now consider `K19Q` .
2.08

Now consider `L15R` .
2.1

Now consider `T21Q` .
1.32

Now consider `L15N` .
1.77

Now consider `E17G` .
1.95

Now consider `I24W` .
1.26

Now consider `V22L` .
1.3

Now consider `P20Q` .
2.13

Now consider `K16H` .
2.75
